apparent KD of MS2 coat protein: recorded values
tested on: MS2 coat protein; experiment: apparent KD of MS2 coat protein; designed switch direction (-1 OFF switch, 1 ON switch): 1; higher = weaker reporter binding; conditions: Eterna round: R95; input ligand: none
API: value field is a number in nM; no unit string.

Some solved cases for reference:
record_sequence="UAGUACAUGCUUUUUGUCUGUCUUAGAUCACAUGAGGAUCACCCAUGUUUGGUGAAAGUUAUAUAGUUUAUGACUAU [JR_SHM208A_Sub059] (puzzle: Sensor for hsa-mir-208a)" assay_system="MS2 coat protein" unit_abbreviation=nM result_number=162
record_sequence="AGUCCAGCCUGAGCUGGACAAAGACAUGUACAUGAGGAUCACCCAUGUCAUGUACAAGUUUUUUGCUCGUCUUAUAA (puzzle: Sensor for hsa-mir-208a)" assay_system="MS2 coat protein" unit_abbreviation=nM result_number=44.1
record_sequence="AUUAAACAUGAGGAUCACCCAUGUCAACAAAGUCGAGGAUAUGGGCUAAUAAAAUAAGAACCAGAAGGCGAAUAAU [salish99_ss1_r3_062] (puzzle: Same State 1)" assay_system="MS2 coat protein" unit_abbreviation=nM result_number=211

AUAAGUUUGAUGCUCGUCUCUCCGUACAAACAUGAGGAUCACCCAUGUGGUCGGGUAGUAGCCCGGCCAGUAUGGCC [Ribiesreri] (puzzle: Sensor for hsa-mir-208a) yielded apparent KD of MS2 coat protein of 46

CAAGUACAUGAGGAUCACCCAUGUGGAAGAGAUGCAGGAUAUGUGGAGGAAGGGAGUGUAACAGAAGGGCAAGGAG [JR_SS!_Sub020] (puzzle: Same State 1) yielded apparent KD of MS2 coat protein of 50.8

AACAAUCUUUCUGAGGAUAUCAUGAAAUAAACAUGAGGAUCACCCAUGUGCAGGAAAACUGCAUAUGAGAAGGCAGAUAGAUUGA [salish99_ss2_r3_024] (puzzle: Same State 2) yielded apparent KD of MS2 coat protein of 1220

CAGCGCUGUCGAGAGGAUAUGCGGUGAUGGACAUGAGGAUCACCCAUGUUAGCGACAGCAUCACGGCAGAAGGCUCUACCGCUGG [Soteed Omei mod 42] (puzzle: Same State 2) yielded apparent KD of MS2 coat protein of 9.61

UUAUAACAUGAGGAUCACCCAUGUCAUCUAAGUCGAGGAUAUGGGAAUUAAUUAAUUAAACCAGAAGGCGAAAAUU [Mat - Same State 1 - D91] (puzzle: Same State 1) yielded apparent KD of MS2 coat protein of 783

AAACUACAUGAGGAUCACCCAUGUGAAAACCGCAUAGGAUAUCCGCAGCAAUAAACUGACGGAGAAGGGUGACCGG [Sobearcege] (puzzle: Same State 1) yielded apparent KD of MS2 coat protein of 549

CUCAAAACAAGUUGCAGUGUUCGUCUUUAACAUGAGGAUCACCCAUGUAAUAGCCCAGUAGAAGCGCUCGGGCCACC [Ceedbeen] (puzzle: Sensor for hsa-mir-208a) yielded apparent KD of MS2 coat protein of 31.9

AUAAGUUCGAUGCUCGUCUCUCCGUACUAACAUGAGGAUCACCCAUGUGGUCGGGAAGUAGCCCGACCAGUAUGGCC [Vearebe] (puzzle: Sensor for hsa-mir-208a) yielded apparent KD of MS2 coat protein of 82.1

All figures here come from the supplement of paper PMC9170038.
